System: Staphylococcus aureus
Assay: Antimicrobial activity against Staphylococcus aureus ATCC 29213 after 24 hr by agar diffusion method
Format: functional
Settings: Staphylococcus aureus, ATCC 29213, 24 h
endpoint.name: MIC (µg/mL)

INSERT INTO measurements (molecular_string, assayed_target, number) VALUES
  ('C(=N/Nc1nc2nc3ccccc3nc2s1)/c1cn(-c2ccccc2)nc1-c1cccs1', 'Staphylococcus aureus', 333),
  ('O=C1CS/C(=N\N=C/c2cn(-c3ccccc3)nc2-c2cccs2)N1', 'Staphylococcus aureus', 20.8),
  ('NC(=S)N/N=C\c1cn(-c2ccccc2)nc1-c1cccs1', 'Staphylococcus aureus', 83.3),
  ('N/C(=N/N=C\c1cn(-c2ccccc2)nc1-c1cccs1)SCC(=O)Nc1cccs1', 'Staphylococcus aureus', 20.8),
  ('O=C(/C=C/c1cn(-c2ccccc2)nc1-c1cccs1)c1ccc(Cl)cc1', 'Staphylococcus aureus', 167);
